target: PTRGER4 (EP4) (Homo sapiens (Human)); experiment: hEP4 b-arrestin assay (PathHunter HEK 293 PTGER4 b-arrestin cells); format: cell-based; settings: antagonistic activity on hEP4; mean where measured multiple times
Parameter: IC50. Scope: all listed entries.
Remember to quote the unit after the number.

CCc1cc(-c2cc(NCCn3c(C)cc4c(C)cc(F)cc43)ncn2)ccc1C(=O)O [compound 219] : 454 nM
COc1cccc2c1cc(C)n2CCNc1cc(-c2cc(F)c(C(=O)O)s2)ncn1 [compound 49] : 235 nM
CCN1Cc2cc(-c3cc(NCCn4c(C)cc5c(OC)cccc54)ncn3)ccc2C1=O [compound 197] : 751 nM
COc1cccc2c1cc(C)n2CCNc1cc(-c2ccc(-c3nc(N)sc3C)cc2)ncn1 [compound 311] : 232 nM
CCCc1cc(-c2cc(NCCn3c(C)cc4cc(F)cc(F)c43)ncn2)ccc1C(=O)O [compound 145] : 302 nM
COc1cc(-c2cc(NCCn3c(C)cc4c(OC)cccc43)ncn2)ccc1CO [compound 36] : 219 nM

Name the reported IC50 value associated with the compound Cc1ccc(F)c2c1cc(C)n2CCNc1cc(-c2ccc3ncccc3c2)ncn1 [compound 355]
134 nM

Name the reported IC50 value associated with the compound CCc1cc(-c2cc(NCCn3c(C)cc4c(OC)ccc(Cl)c43)ncn2)cc(Cl)c1C(=O)O [compound 345]
164 nM

Name the reported IC50 value associated with the compound CCCc1cc(-c2cc(NCCn3c(C)cc4cccc(F)c43)ncn2)ccc1C(=O)O [compound 125]
932 nM

Name the reported IC50 value associated with the compound COc1ccc(F)c2c1cc(C)n2CCNc1cc(-c2ccc(S(N)(=O)=O)c(Cl)c2)ncn1 [compound 172]
536 nM

Name the reported IC50 value associated with the compound CCOc1cc(-c2cc(NCCn3c(C)cc4ccccc43)ncn2)sc1C(=O)O [compound 50]
161 nM

Name the reported IC50 value associated with the compound COc1ccc(F)c2c1cc(C)n2CCNc1cc(-c2cc(Cl)c(C(=O)O)c(Cl)c2)ncn1 [compound 293]
113 nM

###

Parameter: pIC50. Scope: all listed entries.
target: PTRGER4 (EP4) (Homo sapiens (Human), UniProt P35408); assay: hEP4 b-arrestin assay (PathHunter HEK 293 PTGER4 b-arrestin cells); type: cell-based; conditions: antagonistic activity on hEP4; mean where measured multiple times
Sequence (P35408 whole entry, looked up): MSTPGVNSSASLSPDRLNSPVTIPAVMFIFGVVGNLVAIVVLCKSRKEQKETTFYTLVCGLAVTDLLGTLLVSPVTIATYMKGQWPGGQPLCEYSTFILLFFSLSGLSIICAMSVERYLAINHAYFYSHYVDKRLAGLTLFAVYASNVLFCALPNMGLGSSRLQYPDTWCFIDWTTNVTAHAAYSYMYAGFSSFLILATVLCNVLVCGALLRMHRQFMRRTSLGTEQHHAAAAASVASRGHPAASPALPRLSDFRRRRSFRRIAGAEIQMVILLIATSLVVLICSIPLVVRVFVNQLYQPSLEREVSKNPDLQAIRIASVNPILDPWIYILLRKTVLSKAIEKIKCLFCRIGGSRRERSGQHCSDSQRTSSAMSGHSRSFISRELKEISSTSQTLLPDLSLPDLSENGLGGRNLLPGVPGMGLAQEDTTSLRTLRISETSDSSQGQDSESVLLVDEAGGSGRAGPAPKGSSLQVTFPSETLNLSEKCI
A value of pIC50 is the negative decimal logarithm of a concentration given in moles per litre.

// worked examples, pIC50 included
CCOc1cc(-c2cc(NCCn3c(C)cc4c(F)ccc(Cl)c43)ncn2)ccc1C(=O)O : 6.10
CCSc1cc(-c2cc(NCCn3c(C)cc4c(C)c(F)cc(Cl)c43)ncn2)ccc1C(=O)O : 6.40
COc1ccc(F)c2c1cc(C)n2CCNc1cc(-c2ccc(-n3ccc(C)n3)cc2)ncn1 : 6.38

Turning now to a further compound:
Name the reported pIC50 value associated with the compound `COc1ccc(F)c2c1cc(C)n2CCNc1cc(-c2cnc(N3CCOCC3)s2)ncn1`
6.06

###

target: EP4 (Homo sapiens (Human)); test: hEP4 cAMP assay (BT549 breast cancer cells, HTRF cAMP); format: cell-based; conditions: antagonistic activity; mean values where measured multiple times
Parameter: pIC50. Scope: all listed entries.
A value of pIC50 is the negative decimal logarithm of a concentration given in moles per litre.

// worked examples, pIC50 included
CCOc1cc(-c2cc(NCCn3c(Cl)cc4c(OC)ccc(Cl)c43)ncn2)ccc1C(=O)O : 6.69
COc1cccc2c1cc(C)n2CCNc1cc(-c2ccc3c(c2)CN(CC(C)C)C3=O)ncn1 : 6.07
COc1cc(-c2cc(NCCn3c(C)cc4c(F)ccc(F)c43)ncn2)ccc1-c1nnn[nH]1 : 6.50

Turning now to a further compound:
Name the reported pIC50 value associated with the compound `CCOc1cc(-c2cc(NCCn3c(C)cc4c(C)ccc(F)c43)ncn2)cc(Cl)c1C(=O)O`
6.97

###

target: PTGER2 (EP2) (Homo sapiens (Human), UniProt P43116); assay: hEP2 b-arrestin assay (PathHunter HEK 293 PTGER2 b-arrestin cells); assay type: cell-based; details: hEP2 b-arrestin assay (values without asterisk)
Sequence (P43116 whole entry): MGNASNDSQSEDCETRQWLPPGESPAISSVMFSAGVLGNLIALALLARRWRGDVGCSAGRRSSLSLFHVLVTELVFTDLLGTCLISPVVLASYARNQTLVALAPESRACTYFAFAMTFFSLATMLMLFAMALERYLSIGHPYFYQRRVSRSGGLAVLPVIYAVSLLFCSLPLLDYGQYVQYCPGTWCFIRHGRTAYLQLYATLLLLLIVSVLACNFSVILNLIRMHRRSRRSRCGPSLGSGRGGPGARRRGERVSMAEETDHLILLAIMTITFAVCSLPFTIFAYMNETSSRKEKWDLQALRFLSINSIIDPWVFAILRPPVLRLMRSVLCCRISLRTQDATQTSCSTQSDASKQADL
measure name: log10 IC50 (log10 of the value in nM)
The figures below represent log10 of IC50, where IC50 is stated in nM.

Request body: readout log10 IC50, system PTGER2 (EP2) (Homo sapiens (Human), UniProt P43116), query N#Cc1cc2cccc(F)c2n1CCNc1cc(-c2cc(F)c(C(=O)O)s2)ncn1 [Example 901] . Return the value.
0.85

Request body: readout log10 IC50, system PTGER2 (EP2) (Homo sapiens (Human), UniProt P43116), query COc1ccc(F)c2c1cc(C#N)n2CCNc1cc(-c2ccnc(N3CCC3)c2)ncn1 [Example 975] . Return the value.
1.64

Request body: readout log10 IC50, system PTGER2 (EP2) (Homo sapiens (Human), UniProt P43116), query CCOc1cc(-c2cc(NCCn3c(C)cc4c(OC)ccc(F)c43)ncn2)sc1-c1noc(=O)[nH]1 [Example 1054] . Return the value.
0.00

Request body: readout log10 IC50, system PTGER2 (EP2) (Homo sapiens (Human), UniProt P43116), query CCOc1cc(-c2cc(NCCn3c(C)cc4c(OC)ccc(F)c43)ncn2)sc1NC(=O)CCO [Example 1074] . Return the value.
0.95

###

target: PTRGER4 (EP4) (Homo sapiens (Human)); assay: hEP4 b-arrestin assay (PathHunter HEK 293 PTGER4 b-arrestin cells); type: cell-based; conditions: antagonistic activity on hEP4; mean where measured multiple times
measure name: IC50 (nM)
Report only the number, with the unit nM understood.

// worked examples, IC50 included
CCOc1cc(-c2cc(NCCn3c(C)cc4c(C)ccc(F)c43)ncn2)sc1C(=O)O [compound 227] : 22
CCOc1cc(-c2cc(NCCn3c(C)cc4c(C)cc(F)c(F)c43)ncn2)sc1C(=O)O [compound 294] : 10
CNc1cc(-c2cc(NCCn3c(C)cc4c(F)ccc(C)c43)ncn2)ccc1C(=O)O [compound 211] : 394

Name the reported IC50 value associated with the molecule COc1ccc(F)c2c1cc(C)n2CCNc1cc(-c2ccc3c(c2)C(C)NC3=O)ncn1 (racemic) [compound 203]
324

###

Parameter: IC50. Scope: all listed entries.
biological target: EP2 (Homo sapiens (Human), UniProt P43116)
Sequence (P43116 whole entry): as the sequence (P43116 whole entry) above
Report only the number, with the unit nM understood.

CCCc1cc(-c2cc(NCCn3c(C)cc4c(OC)ccc(F)c43)ncn2)cc(F)c1C(=O)O : 8
CCNc1cc(-c2cc(NCCn3c(C)cc4c(OC)ccc(F)c43)ncn2)ccc1-c1nnn[nH]1 : 2
Cc1ccc(F)c2c1cc(C)n2CCNc1cc(-c2ccc(C(=O)O)c(OCC(C)C)c2)ncn1 : 8
COc1cc(-c2cc(NCCn3c(C)cc4c(OC)ccc(F)c43)ncn2)cc(Cl)c1C(=O)O : 19

Turning now to a further molecule:
Request body: readout IC50, system EP2 (Homo sapiens (Human), UniProt P43116), query `Cc1nc(CCC(=O)O)oc1-c1ccc(-c2cc(NCCn3c(C)cc4c(C)cc(F)c(F)c43)ncn2)cc1` . Return the value.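 Further: antagonism of PGE2-stimulated cAMP accumulation in SF295 human glioblastoma cells with endogenous EP2, cAMP read by HTRF, expressed relative to DMSO control.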
428

###

biological target: PTRGER4 (EP4) (Homo sapiens (Human)); assay: hEP4 b-arrestin assay (PathHunter HEK 293 PTGER4 b-arrestin cells); type: cell-based; conditions: antagonistic activity on hEP4; mean where measured multiple times
measure name: pIC50
A value of pIC50 is the negative decimal logarithm of a concentration given in moles per litre.

// worked examples, pIC50 included
CCOc1cc(-c2cc(NCCn3c(C#N)cc4c(C)cc(F)cc43)ncn2)sc1C(=O)O : 8.05
COc1ccc(F)c2c1cc(C)n2CCNc1cc(-c2ccc3cn[nH]c3c2)ncn1 : 6.32
COc1cccc2c1cc(C)n2CCNc1cc(-c2ccc(C3(C(=O)O)CC3)c(F)c2)ncn1 : 6.25
Cc1cc2ccccc2n1CCNc1cc(-c2ccc(-c3nnc(N)s3)cc2)ncn1 : 6.32
CSc1cc(-c2cc(NCCn3c(C)cc4c(C)c(F)cc(Cl)c43)ncn2)cc(F)c1C(=O)O : 6.18

Name the reported pIC50 value associated with the compound `COc1cccc2c1cc(C)n2CCNc1cc(-c2cc(C)c(C(=O)O)s2)ncn1`
6.84

Name the reported pIC50 value associated with the compound `Cc1ccc(F)c2c1cc(C)n2CCNc1cc(-c2cc(F)c(S(N)(=O)=O)c(F)c2)ncn1`
6.13

Name the reported pIC50 value associated with the compound `CCOc1cc(-c2cc(NCCn3c(C)cc4ccc(Cl)c(Cl)c43)ncn2)sc1C(=O)O`
6.38

###

molecular target: PTRGER4 (EP4) (Homo sapiens (Human)); experiment: hEP4 b-arrestin assay (PathHunter HEK 293 PTGER4 b-arrestin cells); type: cell-based; settings: antagonistic activity on hEP4; mean where measured multiple times
measure name: log10(IC50) (log10 of the value in µM)
The figures below represent log10 of IC50, where IC50 is stated in µM.

// worked examples, log10(IC50) included
CCOc1cc(-c2cc(NCCn3c(C)cc4c(C)c(F)cc(F)c43)ncn2)sc1C(=O)O : -2.40
COc1ccc(F)c2c1cc(C)n2CCNc1cc(-c2ccc(C(=O)O)c3[nH]ccc23)ncn1 : -0.15
CCNc1cc(-c2cc(NCCn3c(C)cc4c(C)cc(F)cc43)ncn2)ccc1C(=O)O : -1.07

Name the reported log10(IC50) value associated with the compound `CCNC(=O)Nc1ccc(-c2cc(NCCn3c(C)cc4c(OC)cccc43)ncn2)cc1OC`
-1.24

Name the reported log10(IC50) value associated with the compound `CCOc1cc(-c2cc(NCCn3c(C#N)cc4ccccc43)ncn2)ccc1C(=O)O`
-0.25

Name the reported log10(IC50) value associated with the compound `CCOc1cc(-c2cc(NCCn3c(C)cc4c(Cl)ccc(Cl)c43)ncn2)ccc1C(=O)O`
-0.09

Name the reported log10(IC50) value associated with the compound `COc1cc(F)c(F)c2c1cc(C)n2CCNc1cc(-c2ccc3c(c2)CC(=O)N3)ncn1`
-0.78

Name the reported log10(IC50) value associated with the compound `CCOc1cc(-c2cc(NCCn3c(C)cc4c(F)c(F)ccc43)ncn2)sc1C(=O)O`
-1.22

Values from patent US12011444B2
